Overview of reported MIC across a group of molecules:
tested on: Klebsiella pneumoniae; experiment: Antibacterial activity against Klebsiella pneumoniae ATCC 13883 assessed as growth inhibition by broth dilution method; assay type: functional
Could you give me the number in µg/mL? Just the number is fine.

smiles.structure	experimental.readout	assay.value
CC[C@H](C)[C@@H](NC(=O)[C@@H](NC(=O)[C@H](CCC(=O)O)NC(=O)[C@H](Cc1ccccc1)NC(=O)[C@@H](CCN)NC(=O)[C@H](CCN)NC(=O)[C@H](CO)NC(=O)[C@@H](Cc1c[nH]c2ccccc12)NC(=O)[C@@H](CO)NC(=O)CNC(=O)[C@@H](CCN)NC(=O)[C@H](NC(=O)CCCC[C@@H]1SC[C@@H]2NC(=O)N[C@@H]21)C(C)C)C(C)C)C(=O)N[C@@H](C)C(=O)O	MIC	50

Please look at the following molecule next.
# input Give the value of MIC reported for the following: CCCCCCCCCCC(=O)N[C@@H](C(=O)N[C@H](CCN)C(=O)NCC(=O)N[C@H](CO)C(=O)N[C@H](Cc1c[nH]c2ccccc12)C(=O)N[C@@H](CO)C(=O)N[C@@H](CCN)C(=O)N[C@H](CCN)C(=O)N[C@@H](Cc1ccccc1)C(=O)N[C@@H](CCC(=O)O)C(=O)N[C@H](C(=O)N[C@@H](C(=O)N[C@@H](C)C(=O)O)[C@@H](C)CC)C(C)C)C(C)C
# output 6.25

---

tested on: Enterococcus faecalis; assay: Antibacterial activity against Enterococcus faecalis ATCC 29212 assessed as growth inhibition by broth dilution method; assay type: functional
Overview of reported MIC across a group of molecules:

Example entries and their recorded answers appear below.
smiles.structure	MIC
CCCCCCCCCCC(=O)N[C@@H](C(=O)N[C@H](CCN)C(=O)NCC(=O)N[C@H](CO)C(=O)N[C@H](Cc1c[nH]c2ccccc12)C(=O)N[C@@H](CO)C(=O)N[C@@H](CCN)C(=O)N[C@H](CCN)C(=O)N[C@@H](Cc1ccccc1)C(=O)N[C@@H](CCC(=O)O)C(=O)N[C@H](C(=O)N[C@@H](C(=O)N[C@@H](C)C(=O)O)[C@@H](C)CC)C(C)C)C(C)C	> 100 mg/L
CC[C@H](C)[C@@H](NC(=O)[C@@H](NC(=O)[C@H](CCC(=O)O)NC(=O)[C@H](Cc1ccccc1)NC(=O)[C@@H](CCN)NC(=O)[C@H](CCN)NC(=O)[C@H](CO)NC(=O)[C@@H](Cc1c[nH]c2ccccc12)NC(=O)[C@@H](CO)NC(=O)CNC(=O)[C@@H](CCN)NC(=O)[C@H](NC(=O)CC12CC3CC(CC(C3)C1)C2)C(C)C)C(C)C)C(=O)N[C@@H](C)C(=O)O	50 mg/L

# input Give the value of MIC reported for the following: CC[C@@H](C)CC[C@H](O)CC(=O)N[C@@H](C(=O)N[C@H](CCN)C(=O)NCC(=O)N[C@H](CO)C(=O)N[C@H](Cc1c[nH]c2ccccc12)C(=O)N[C@@H](CO)C(=O)N[C@@H](CCN)C(=O)N[C@H](CCN)C(=O)N[C@@H](Cc1ccccc1)C(=O)N[C@@H](CCC(=O)O)C(=O)N[C@H](C(=O)N[C@@H](C(=O)N[C@@H](C)C(=O)O)[C@@H](C)CC)C(C)C)C(C)C
# output > 100 mg/L
